target: CCKB receptor (Mus musculus); construct: The whole brains from male mice (CD1 22-25 g; Charles River) were removed; from tissue; host or cells: cerebral cortex membranes of male CD1 mice; test: CCKB receptor radioligand binding assay in mouse cortical membranes; settings: [125I]-CCK8(S) 200 pM, 150 min at 21±3°, read-out: CCKB pKi (converted)
Sequence (P56481 whole entry): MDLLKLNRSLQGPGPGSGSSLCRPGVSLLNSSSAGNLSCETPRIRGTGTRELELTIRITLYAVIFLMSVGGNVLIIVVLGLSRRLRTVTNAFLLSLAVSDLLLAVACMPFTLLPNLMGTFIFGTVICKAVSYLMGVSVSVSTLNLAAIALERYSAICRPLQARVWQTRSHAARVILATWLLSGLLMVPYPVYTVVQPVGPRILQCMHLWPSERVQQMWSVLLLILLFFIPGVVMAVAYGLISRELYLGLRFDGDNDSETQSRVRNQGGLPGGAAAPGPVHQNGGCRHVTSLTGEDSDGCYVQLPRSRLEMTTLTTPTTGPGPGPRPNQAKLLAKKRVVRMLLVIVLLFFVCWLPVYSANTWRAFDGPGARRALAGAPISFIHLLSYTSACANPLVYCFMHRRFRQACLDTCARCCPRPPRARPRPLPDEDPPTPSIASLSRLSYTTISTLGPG
property: Ki

O=C(O)c1cccc(NC(=O)c2nc(C34CC5CC(CC(C5)C3)C4)[nH]c2CCC23CC4CC(CC(C4)C2)C3)c1	44.7 nM
Cc1ccccc1-c1nc(C(=O)N2CCCC(C(=O)O)C2)c(CCC23CC4CC(CC(C4)C2)C3)[nH]1 (racemic)	2510 nM
O=C(O)c1cccc(NC(=O)c2[nH]c(C3CCCCC3)nc2CCC23CC4CC(CC(C4)C2)C3)c1	25.1 nM

Please turn your attention to the following entry.
### Prompt Consider the compound shown here: `O=C(O)c1cccc(NC(=O)c2sc(C3CCCCC3)nc2CCC23CC4CC(CC(C4)C2)C3)c1` What is its recorded Ki?
### Response 1020 nM
